Target: T1, ScPif1p K595A (Saccharomyces cerevisiae, UniProt P07271 237-780, K595A)
T1 sequence: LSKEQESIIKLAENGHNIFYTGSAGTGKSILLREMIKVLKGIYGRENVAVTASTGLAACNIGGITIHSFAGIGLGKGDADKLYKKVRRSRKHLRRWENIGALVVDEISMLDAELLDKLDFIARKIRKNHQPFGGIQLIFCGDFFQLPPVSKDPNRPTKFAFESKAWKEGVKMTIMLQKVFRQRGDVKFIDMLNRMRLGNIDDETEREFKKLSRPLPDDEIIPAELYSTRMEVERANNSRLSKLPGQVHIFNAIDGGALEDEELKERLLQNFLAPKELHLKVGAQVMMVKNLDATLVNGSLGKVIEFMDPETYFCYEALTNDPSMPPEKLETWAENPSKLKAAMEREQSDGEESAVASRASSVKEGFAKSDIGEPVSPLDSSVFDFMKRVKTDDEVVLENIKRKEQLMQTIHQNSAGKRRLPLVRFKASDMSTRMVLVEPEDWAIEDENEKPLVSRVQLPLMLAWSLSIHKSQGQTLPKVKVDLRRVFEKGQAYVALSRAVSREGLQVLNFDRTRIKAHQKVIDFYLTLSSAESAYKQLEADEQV
Test: fluorescence anisotropy
measure: Kd (nM)
Respond numerically; units are nM and should not be typed.

Query: Kd; subject: GTGTGTGTGGTG (ssDNA) [GR12] 10.2
